ASSAY SUMMARY: chemical genetic growth profiling, strain panel (AID 1159580);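 note: tested at 20 µM; growth read once vehicle control cultures reached saturation at 30 °C; 1 = growth at the plate median or of vehicle wells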
CONDITIONS: S. cerevisiae deletion strains, growth OD, locus YJL115W, strain asf1, stronger effect = lower value
Out of some 5,500 compounds screened, about 2,000 (36%) were called active. About 18% were inconclusive and are not listed. The list shows a part of the results.
Labelling field: enter Met if recorded normalized growth is less than 1. Enter Not met if it equals or exceeds that cut-off.

Q: Is it true that normalized growth reported for `Oc1cc(Cl)ccc1Oc1ccc(Cl)cc1Cl` is less than 1?
Ans: Met

Q: Dear reviewer, please state whether `NC(=O)c1ccc[n+]([C@@H]2O[C@H](COP(=O)([O-])OP(=O)(O)OC[C@H]3O[C@@H](n4cnc5c(N)ncnc54)[C@H](O)[C@@H]3O)[C@@H](O)[C@H]2O)c1` has normalized growth strictly beneath 1.
Ans: Not met

Q: Is the reported normalized growth for `CC1=C(C/C=C(\C)CCC[C@H](C)CCC[C@H](C)CCCC(C)C)C(=O)c2ccccc2C1=O` strictly below 1?
Ans: Met

Q: Consider the compound `CCN(CC)CCNC(=O)c1cc(Br)c(N)cc1OC` . Is its normalized growth strictly less than 1?
Ans: Met

Q: Please check: normalized growth for CC(C[N+](C)(C)C)OC(N)=O (stereo not given) , strictly under 1 or not?
Ans: Not met

Q: Given COCCc1ccc(OCC(O)CNC(C)C)cc1 (stereo not given) , is recorded normalized growth strictly lower than 1?
Ans: Met

Q: Hi there! Is normalized growth for `CCC(=O)O[C@H]1[C@H](O[C@@H]2[C@@H](C)[C@H](O[C@H]3C[C@@](C)(OC)[C@@H](O)[C@H](C)O3)[C@@H](C)C(=O)O[C@H](CC)[C@@](C)(O)[C@H](O)[C@@H](C)C(=O)[C@H](C)C[C@@]2(C)O)O[C@H](C)C[C@@H]1N(C)C` below 1, do you know?
Ans: Not met

* * *

ASSAY SUMMARY: chemical genetic growth profiling, strain panel (AID 1159580)
CONDITIONS: S. cerevisiae deletion strains, growth OD, locus YOR070C, strain gyp1, stronger effect = lower value
In all, about 5,500 compounds went through this assay and about 2,000 (36%) were called active. Roughly 18% stayed inconclusive and do not appear here. The list shows a part of the results.
Here the recorded normalized growth is given for each entry.
Hey, just send me the number, nothing else.

Reference set (5 entries):
CCOC(=O)CCC(=O)O[C@H]1[C@H](O[C@@H]2[C@@H](C)[C@H](O[C@H]3C[C@@](C)(OC)[C@@H](O)[C@H](C)O3)[C@@H](C)C(=O)O[C@H](CC)[C@@](C)(O)[C@H](O)[C@@H](C)C(=O)[C@H](C)C[C@@]2(C)O)O[C@H](C)C[C@@H]1N(C)C : 0.991
CC1=C(C(C)O)C2=NC1C=c1[nH]c(c(C)c1C(C)O)=Cc1[nH]c(c(CCC(=O)O)c1C)C=c1[nH]c(c(C)c1CCC(=O)O)=C2 (stereo not drawn) : 0.989
COc1cc(NC(C)CCCN)c2ncccc2c1 (stereo not drawn) : 1.02
COc1ccc2c3c1O[C@H]1C[C@@H](O)C=C[C@@]31CCN(C)C2 : 1.01
Cc1[nH]c(C)c(Cl)c(=O)c1Cl : 1.01

Q: Requested field: normalized growth. Item: `Cc1cc(O)c(C=O)c(O)c1C(=O)O`
Ans: 0.998

Q: Give the measured normalized growth of `C[N+](C)(C)CCOC(N)=O` .
Ans: 1.01

Q: Which normalized growth is reported for this compound? CCC(=O)O[C@H]1CCC2C3CCC4=CC(=O)CC[C@]4(C)C3CC[C@@]21C (stereo partly drawn)
Ans: 0.944

Q: I'd like to know its normalized growth. The compound in question is `CCOC(=O)c1c(C)cc(O)c(C=O)c1O`
Ans: 0.535

Q: Value lookup for normalized growth; key = CC(N)CCCC(C)(C)O (stereo not drawn)
Ans: 0.992

Q: Data request, read-out normalized growth, for C[C@]12CCC(=O)C=C1CCC1C2CC[C@@]2(C)C1CC[C@@H]2O (stereo partly drawn)
Ans: 0.988

Q: Item NC(=O)C(c1ccccc1)(c1ccccc1)C1CCN(CCc2ccc3c(c2)CCO3)C1 (stereo not drawn) has what recorded normalized growth?
Ans: 1.03

Q: Request the reported normalized growth associated with `CC(=O)N[C@@H](CC(C)C)C(=O)O`
Ans: 1

* * *

ASSAY SUMMARY: chemical genetic growth profiling, strain panel (AID 1159580);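 note: tested at 20 µM; growth read once vehicle control cultures reached saturation at 30 °C; 1 = growth at the plate median or of vehicle wells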
CONDITIONS: S. cerevisiae deletion strains, growth OD, locus YEL037C, strain rad23, stronger effect = lower value
The whole screen tested about 5,500 compounds, of which about 2,000 (36%) were called active. Another 18% or so got no clear call; they are omitted. The list shows a part of the results.
normalized growth overview
API doc: respond with a numeric literal and nothing else, no unit.

Would you please look over these solved cases?
CN1CCC(=C2c3ccccc3CC(=O)c3sccc32)CC1 : 0.99
C[N+](C)(C)CCOC(N)=O : 1.02
CC(=O)N[C@@H](CC(C)C)C(=O)O : 0.994
CC1CC2C3CCC4=CC(=O)C=C[C@]4(C)[C@@]3(F)[C@@H](O)C[C@]2(C)[C@@]1(O)C(=O)CO (some centres undefined) : 0.976
CCCCCCNC(=O)n1cc(F)c(=O)[nH]c1=O : 0.894
CCC(=O)O[C@H]1[C@H](O[C@@H]2[C@@H](C)[C@H](O[C@H]3C[C@@](C)(OC)[C@@H](O)[C@H](C)O3)[C@@H](C)C(=O)O[C@H](CC)[C@@](C)(O)[C@H](O)[C@@H](C)C(=O)[C@H](C)C[C@@]2(C)O)O[C@H](C)C[C@@H]1N(C)C : 0.971

Q: If you can, please state the reported normalized growth value of `CCN(CC)CCNC(=O)c1cc(Br)c(N)cc1OC` .
Ans: 0.985

Q: Suppose we examine the compound Cc1cccc(C)c1OCC(C)N (centres undefined) ; what normalized growth value has been reported?
Ans: 0.992

Q: # lookup: normalized growth of `CN1CCC(=C2c3ccccc3CCc3sccc32)CC1`
Ans: 0.975

* * *

ASSAY SUMMARY: chemical genetic growth profiling, strain panel (AID 1159580);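 note: tested at 20 µM; growth read once vehicle control cultures reached saturation at 30 °C; 1 = growth at the plate median or of vehicle wells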
CONDITIONS: S. cerevisiae deletion strains, growth OD, locus YLR058C, strain SHM2 (second series)
About 2,000 (36%) of roughly 5,500 compounds were called active. Another 18% or so got no clear call; they are omitted. Rule as the data show it: active = normalized growth mostly below about 0.91 (no sharp cut-off); inconclusive = no clear call, values can overlap the other calls; inactive = mostly above about 0.92. This is one part of the list.
Outcome (select one): active, inactive

Sample answers from the record:
CCOC(=O)c1[nH]c(Cc2[nH]c(C(=O)OCC)c(C)c2C)c(C)c1C : inactive
c1ccc(N=Nc2ccc(Nc3ccccc3)cc2)cc1 : inactive
COC(=O)/C(=C/N(C)C)Sc1cc(C)c(Cl)cc1Cl : inactive
Cc1cccc(Cn2c(C)c(C)c(S(=O)(=O)c3ccccc3)c2N)c1C : inactive

Q: Hi, do you know how `COc1ccc(OC)c(S(=O)(=O)Oc2ccc(C#N)cc2)c1` came out in this test?
Ans: inactive

Q: Per the records of this test, what outcome belongs to `CCCc1cc(=O)c2ccc(O)cc2o1` ?
Ans: inactive

Q: What outcome does the record of this test show for `CC(C)(C)c1ccc(NC(=O)Cc2cc(F)cc(F)c2)cc1` ?
Ans: inactive

* * *

ASSAY SUMMARY: chemical genetic growth profiling, strain panel (AID 1159580);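 note: tested at 20 µM; growth read once vehicle control cultures reached saturation at 30 °C; 1 = growth at the plate median or of vehicle wells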
CONDITIONS: S. cerevisiae deletion strains, growth OD, locus YDL101C, strain DUN1
Out of some 5,500 compounds screened, about 2,000 (36%) were called active. Not shown: some 18% with an inconclusive outcome. Cut-off read from the data, not from the text of the source: active = normalized growth mostly below about 0.91 (no sharp cut-off); inconclusive = no clear call, values can overlap the other calls; inactive = mostly above about 0.92. The list shows a part of the results.
Classes to choose from: T for active, F for inactive

These recorded examples may help you get a feel for the data.
CC(C)(C)C(=O)Nc1ccc(F)cc1 : F
CC(C(=O)O)c1cccc(Oc2ccccc2)c1 (centres undefined) : F
Cc1c(Cc2ccc(F)cc2)c(=O)oc2cc(O)ccc12 : F
COc1cc2c(cc1OC)C(=O)OC2 : F
CCCc1cc(=O)c2ccc(O)cc2o1 : F
NCCSSCCN : F

Q: Please state the recorded outcome for this compound: `Cc1c(O)c(C(=O)CC(C)C)c2oc3c(C(=O)CC(C)C)c(O)c(C)c(O)c3c2c1O`
Ans: F

Q: Fill in: this test's call for `COc1ccccc1N1CCN(S(=O)(=O)c2cc(C)c(Cl)cc2C)CC1` is ___
Ans: F

Q: Tell me the assay call for `CC1=C(OS(=O)(=O)c2cc(C)c(Cl)cc2Cl)C(=O)CC1` please.
Ans: F

Q: What call does the record list for `S=C(Nc1ccc(Cl)cc1Cl)N(c1cccc(Cl)c1)c1nc2ccccc2s1` ?
Ans: F

Q: Kindly provide the recorded test outcome for the following compound: `COc1ccc2c(c1OC)C(=O)O[C@H]2[C@H]1c2cc3c(cc2CCN1C)OCO3`
Ans: F

Q: Hi, sorry to bother you, what did the test record for `CCOC(=O)C(=CNNC(=O)c1ccccc1-n1cccc1)C(=O)OCC` ?
Ans: F

Q: Identify the outcome logged in this assay for the compound shown: `COc1ccc2c(c1OC)C(=O)O[C@@H]2[C@H]1c2cc3c(cc2CCN1C)OCO3`
Ans: F

Q: Per the assay record, what outcome was assigned to `N#Cc1ccc(S(=O)(=O)Nc2ccccc2Oc2ccc(Cl)cc2Cl)cc1` ?
Ans: F

Q: Recorded test outcome, item C=Cc1c2[nH]c(c1C)C=c1[nH]c(c(C)c1C=C)=CC1N=C(C=c3[nH]c(c(C)c3CCC(=O)O)=C2)C(CCC(=O)O)=C1C (centres undefined)
Ans: F

Q: Please share the test call associated with `Cc1ccccc1C(=O)Oc1ccc(C(F)(F)F)cc1[N+](=O)[O-]` .
Ans: F
